# target desc: GR (Homo sapiens (Human))
# Sequence (P04150 whole entry): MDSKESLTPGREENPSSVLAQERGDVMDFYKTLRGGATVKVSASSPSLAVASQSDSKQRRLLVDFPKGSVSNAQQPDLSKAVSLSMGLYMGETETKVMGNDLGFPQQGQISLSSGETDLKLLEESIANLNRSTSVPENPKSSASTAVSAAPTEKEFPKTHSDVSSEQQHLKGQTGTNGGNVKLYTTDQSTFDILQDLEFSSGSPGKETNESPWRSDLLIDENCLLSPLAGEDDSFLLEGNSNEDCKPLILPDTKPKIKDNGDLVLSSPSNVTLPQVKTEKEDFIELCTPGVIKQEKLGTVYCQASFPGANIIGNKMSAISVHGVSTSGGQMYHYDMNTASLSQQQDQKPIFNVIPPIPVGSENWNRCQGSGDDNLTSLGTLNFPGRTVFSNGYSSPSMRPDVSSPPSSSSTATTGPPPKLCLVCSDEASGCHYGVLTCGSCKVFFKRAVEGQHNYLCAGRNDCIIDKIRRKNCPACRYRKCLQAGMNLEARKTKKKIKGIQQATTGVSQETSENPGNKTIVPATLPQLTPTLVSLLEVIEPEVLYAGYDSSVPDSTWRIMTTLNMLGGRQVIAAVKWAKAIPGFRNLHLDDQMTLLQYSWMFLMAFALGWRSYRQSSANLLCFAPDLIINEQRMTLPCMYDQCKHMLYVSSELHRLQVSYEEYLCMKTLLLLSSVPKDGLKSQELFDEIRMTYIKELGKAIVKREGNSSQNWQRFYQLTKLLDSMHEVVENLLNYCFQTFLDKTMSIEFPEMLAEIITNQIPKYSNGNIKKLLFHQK
# protocol description: In Vitro GR Luciferase Reporter Assay
# test conditions: CHO-K1-GR-MMTV-Luc reporter cells, antagonist assay, 10 nM Dexamethasone, 18-24 hours
Kindly state IC50 for each of the entries shown.

Fill in: IC50 on GR (Homo sapiens (Human)), entry Cc1cc([C@H]2C[C@@]3(C)[C@@H](CC[C@@]3(O)C#CC(C)(C)C)[C@@H]3CCC4=CC(=O)CCC4=C32)ccc1N(C)C [drawing 283]
≤ 100 nM

Fill in: IC50 on GR (Homo sapiens (Human)), entry CC(C)C#C[C@]1(O)CC[C@H]2[C@@H]3CCC4=CC(=O)CCC4=C3[C@@H](c3ccc(N(C)C)c(F)c3F)C[C@@]21C
≤ 100 nM

Fill in: IC50 on GR (Homo sapiens (Human)), entry CC(C)(C)C#C[C@]1(O)CC[C@H]2[C@@H]3CCC4=CC(=O)CCC4=C3[C@@H](c3cc(F)c(-c4cncnc4)cc3F)C[C@@]21C
≤ 100 nM

Fill in: IC50 on GR (Homo sapiens (Human)), entry CC(C)(C)C#C[C@]1(O)CC[C@H]2[C@@H]3CCC4=CC(=O)CCC4=C3[C@@H](c3ccc(NCC4CC4)cc3)C[C@@]21C
≤ 100 nM

Fill in: IC50 on GR (Homo sapiens (Human)), entry CCc1ccc([C@H]2C[C@@]3(C)[C@@H](CC[C@@]3(O)C#CC(C)(C)C)[C@@H]3CCC4=CC(=O)CCC4=C32)cc1
≤ 100 nM

Fill in: IC50 on GR (Homo sapiens (Human)), entry COC(C)(C)C#C[C@]1(O)CC[C@H]2[C@@H]3CCC4=CC(=O)CCC4=C3[C@@H](c3ccc(N4CCS(=O)(=O)CC4)cc3)C[C@@]21C
> 100 nM
